// data source = the supplement of paper PMC8671470

Tested on: KU-812
protocol notes: cell viability (% survival relative to DMSO control, bortezomib = 0%); higher = less cytotoxic
assay context: 1 nM; 72 h
assay readout: cell viability (%)
Report as a plain number; the unit % is understood.

Please review the entries below; each comes with its answer.
compound	target or test system	assay readout	number
CN(CCOc1ccc(Cc2sc(O)nc2O)cc1)c1ccccn1 [Rosiglitazone]	KU-812	cell viability	98.9
C[C@H]1c2cccc(O)c2C(=O)C2C(=O)[C@]3(O)C(=O)C(C(N)=O)C(=O)[C@@H](N(C)C)[C@@H]3[C@@H](O)[C@@H]21 (stereo partly drawn) [Doxycycline]	KU-812	cell viability	111

Now turn to the next compound.
Query: What value of cell viability has been reported for the following compound? CC/C=C\C[C@H]1C(=O)CC[C@@H]1CC(=O)OC [Methyl jasmonate]
Response: 99.3

###

Tested on: myeloid leukemia patient primary cells Pat.10
protocol notes: cell viability (% survival relative to DMSO control); higher = less cytotoxic
assay context: 1 nM; 72 h
// reported cell viability per item
Remember to follow the number with its unit.

Please review the entries below; each comes with its answer.
molecule	cell viability
CC(C)(C)c1ccc(S(=O)(=O)NCc2ccc(C(=O)Nc3cccnc3)cc2)cc1	56.6%
c1cc(-c2cnn3cc(-c4ccc(OCCN5CCCCC5)cc4)cnc23)ccn1	17.6%
CC(=O)Nc1nc(C)c(-c2ccc(Cl)c(S(=O)(=O)NCCO)c2)s1	65.9%

Now turn to the next molecule.
Query: What value of cell viability has been reported for the following molecule? CN(Cc1cnc2nc(N)nc(N)c2n1)c1ccc(C(=O)N[C@@H](CCC(=O)O)C(=O)O)cc1 [Methotrexate]
Response: 68.8%

###

Tested on: myeloid leukemia patient primary cells Pat.10
protocol notes: cell viability (% survival relative to DMSO control); higher = less cytotoxic
assay context: 10000 nM; 72 h
// reported cell viability per item
Report as a plain number; the unit % is understood.

molecule	number
CN(CCOc1ccc(Cc2sc(O)nc2O)cc1)c1ccccn1 [Rosiglitazone]	49.2
CN(Cc1cnc2nc(N)nc(N)c2n1)c1ccc(C(=O)N[C@@H](CCC(=O)O)C(=O)O)cc1 [Methotrexate]	15.2
O=C(O)CC[N+](=O)[O-] [3-nitropropionic acid]	36.6

Query: API: value(readout= cell viability, system= myeloid leukemia patient primary cells Pat.10, query= CO[C@H]1C[C@@H]2CC[C@@H](C)[C@@](O)(O2)C(=O)C(=O)N2CCCC[C@H]2C(=O)O[C@H]([C@H](C)C[C@@H]2CC[C@@H](OCCO)[C@H](OC)C2)CC(=O)[C@H](C)/C=C(\C)[C@@H](O)[C@@H](OC)C(=O)[C@H](C)C[C@H](C)/C=C/C=C/C=C/1C [Everolimus] )
Response: 11.8

###

// reported cell viability per item
Test system: LAMA-84
protocol notes: cell viability (% survival relative to DMSO control, bortezomib = 0%); higher = less cytotoxic
assay context: 1000 nM; 72 h
Report as a plain number; the unit % is understood.

Please review the entries below; each comes with its answer.
structure smiles	number
C=CC(=O)c1ccc(O)cc1	105
O=C1C(SCCO)=C(SCCO)C(=O)c2ccccc21	36.1
Cc1c2c(=O)n(-c3ccccc3Cl)[nH]c2cc(=O)n1Cc1ccccn1	99.9

Query: API: value(readout= cell viability, system= LAMA-84, query= Cc1cccc(Nc2cc(Cl)nc(SCC(=O)O)n2)c1C )
Response: 94.5

Query: API: value(readout= cell viability, system= LAMA-84, query= OC[C@H]1O[C@@H](n2cnc3c2N=CNC[C@H]3O)C[C@@H]1O )
Response: 101

###

System: HL-60
protocol notes: cell viability (% survival relative to DMSO control, bortezomib = 0%); higher = less cytotoxic
assay context: 10000 nM; 72 h
// reported cell viability per item
Report as a plain number; the unit % is understood.

Please review the entries below; each comes with its answer.
structure smiles	cell viability / %
CN(CCOc1ccc(Cc2sc(O)nc2O)cc1)c1ccccn1	168
N[C@@H](CC(=O)N1CCn2c(nnc2C(F)(F)F)C1)Cc1cc(F)c(F)cc1F	95.2
O=C(NCCN1CCC(n2c(O)nc3ccccc32)CC1)c1cc2cc(F)ccc2[nH]1	92.2

Query: What value of cell viability has been reported for the following compound? CC(C)CC(=O)N[C@H](C(=O)N[C@H](C(=O)N[C@@H](CC(C)C)[C@@H](O)CC(=O)N[C@@H](C)C(=O)N[C@@H](CC(C)C)[C@@H](O)CC(=O)O)C(C)C)C(C)C
Response: 84.6

Query: What value of cell viability has been reported for the following compound? O=C(O)CC[N+](=O)[O-]
Response: 14.7

Query: What value of cell viability has been reported for the following compound? O=c1cc(-c2ccccc2)oc2c1ccc1ccccc12
Response: 103

###

Test system: myeloid leukemia patient primary cells Pat.13
protocol notes: cell viability (% survival relative to DMSO control); higher = less cytotoxic
assay context: 10 nM; 72 h
assay readout: cell viability (%)
Report as a plain number; the unit % is understood.

Query: API: value(readout= cell viability, system= myeloid leukemia patient primary cells Pat.13, query= CCN(CC)C(=S)SSC(=S)N(CC)CC )
Response: 91

Query: API: value(readout= cell viability, system= myeloid leukemia patient primary cells Pat.13, query= O=C1C(SCCO)=C(SCCO)C(=O)c2ccccc21 )
Response: 90.8

###

// reported cell viability per item
System: KU-812
protocol notes: cell viability (% survival relative to DMSO control, bortezomib = 0%); higher = less cytotoxic
assay context: 1000 nM; 72 h
Report as a plain number; the unit % is understood.

Please review the entries below; each comes with its answer.
structure smiles	target or test system	assay readout	units label	number
Cc1cccc(Nc2cc(Cl)nc(SCC(=O)O)n2)c1C	KU-812	cell viability	%	96.4
Cc1c2c(=O)n(-c3ccccc3Cl)[nH]c2cc(=O)n1Cc1ccccn1	KU-812	cell viability	%	100
CC(C)(C)c1ccc(S(=O)(=O)NCc2ccc(C(=O)Nc3cccnc3)cc2)cc1	KU-812	cell viability	%	14.2
Cc1cc2c(C(C)C)c(O)c(O)c(C=O)c2c(O)c1-c1c(C)cc2c(C(C)C)c(O)c(O)c(C=O)c2c1O	KU-812	cell viability	%	86.1
CN(CCOc1ccc(Cc2sc(O)nc2O)cc1)c1ccccn1	KU-812	cell viability	%	95.4
O=C(/C=C/c1ccc(O)c(O)c1)OCCc1ccccc1	KU-812	cell viability	%	33.2
CCn1c(=Cc2cccc[n+]2CC)sc(=C2Sc3ccccc3N2C)c1=O	KU-812	cell viability	%	98.3
CO[C@H]1C[C@@H]2CC[C@@H](C)[C@@](O)(O2)C(=O)C(=O)N2CCCC[C@H]2C(=O)O[C@H]([C@H](C)C[C@@H]2CC[C@@H](OCCO)[C@H](OC)C2)CC(=O)[C@H](C)/C=C(\C)[C@@H](O)[C@@H](OC)C(=O)[C@H](C)C[C@H](C)/C=C/C=C/C=C/1C	KU-812	cell viability	%	39.4
CCCCCOC(=O)Nc1nc(=O)n([C@@H]2O[C@H](C)[C@@H](O)[C@H]2O)cc1F	KU-812	cell viability	%	102
CCc1c(C(=O)C(N)=O)c2c(OCC(=O)O)cccc2n1Cc1ccccc1	KU-812	cell viability	%	97.6

Query: What value of cell viability has been reported for the following compound? O=c1cc(-c2ccccc2)oc2c1ccc1ccccc12
Response: 96

###

System: myeloid leukemia patient primary cells Pat.12
protocol notes: cell viability (% survival relative to DMSO control); higher = less cytotoxic
assay context: 10 nM; 72 h
assay readout: cell viability (%)
Report as a plain number; the unit % is understood.

structure smiles	units label	cell viability
O=C(/C=C/c1ccc(O)c(O)c1)OCCc1ccccc1	%	95.5
O=C(O)CC[N+](=O)[O-]	%	84

Now turn to the next compound.
Query: What value of cell viability has been reported for the following compound? O=c1cc(N2CCOCC2)oc2c(-c3ccccc3)cccc12
Response: 98.3

###

Test system: THP-1
protocol notes: cell viability (% survival relative to DMSO control, bortezomib = 0%); higher = less cytotoxic
assay context: 1 nM; 72 h
assay readout: cell viability (%)
Report as a plain number; the unit % is understood.

Please review the entries below; each comes with its answer.
compound	target or test system	number
Cc1ccc(-c2cc(C(F)(F)F)nn2-c2ccc(S(N)(=O)=O)cc2)cc1	THP-1	105
Cc1c2c(=O)n(-c3ccccc3Cl)[nH]c2cc(=O)n1Cc1ccccn1	THP-1	95.8
OC[C@H]1O[C@@H](n2cnc3c2N=CNC[C@H]3O)C[C@@H]1O	THP-1	102

Query: What value of cell viability has been reported for the following compound? O=c1cc(-c2ccccc2)oc2c1ccc1ccccc12
Response: 98.3

Query: What value of cell viability has been reported for the following compound? CN1CCN(CCCN2c3ccccc3Sc3ccc(C(F)(F)F)cc32)CC1
Response: 97.9

Query: What value of cell viability has been reported for the following compound? CN(CCOc1ccc(Cc2sc(O)nc2O)cc1)c1ccccn1
Response: 101
